Molecular target: CCR3 receptor (UniProt P51677)
Assay: CCR3 Receptor Binding Assay ([125I]-labeled human eotaxin/CCL11 displacement on cells)
Conditions: 0.1 nM [125I]-labeled human eotaxin/CCL11, 60 min at room temperature
Protocol: Cells were washed once with PBS and resuspended in a binding buffer (25 mM HEPES pH 7.6, 5 mM MgCl2, 1 mM CaCl2, 0.5% BSA, 0.1% NaN3). […] The cell suspension was then transferred to a filtration plate (#MAFB, Millipore), and washed 3 times with the binding buffer containing 0.5 M NaCl, scintillant added, and the radioactivity was counted on a TopCount (Packard). […]
pKi: −log10 of the molar value.
OBSERVED PROPERTY: pKi

1. Cc1cc(C)cc(Sc2ccc(C#N)cc2S(=O)(=O)NC2CCN(C(=O)OC(C)(C)C)CC2)c1 | 5.30 to 6.30

[ask] Reported pKi, compound CC(C)(C)OC(=O)N1CCC(NS(=O)(=O)c2cc(C#N)ccc2Sc2cc(Cl)cc(Cl)c2)CC1 : ____
[reply] 5.30 to 6.30

[ask] Reported pKi, compound CC(C)(C)OC(=O)N1CCC(NS(=O)(=O)c2cc(C#N)ccc2Oc2cc(Cl)cc(Cl)c2)CC1 : ____
[reply] < 5.30

[ask] Reported pKi, compound N#Cc1ccc(Oc2cc(Cl)cc(Cl)c2)c(S(=O)(=O)N2CCC(NC(=O)NCCN3CCNCC3)CC2)c1 : ____
[reply] ≥ 7.30

----------
Target: CCR3 receptor (UniProt P51677)
Sequence (P51677 1-355): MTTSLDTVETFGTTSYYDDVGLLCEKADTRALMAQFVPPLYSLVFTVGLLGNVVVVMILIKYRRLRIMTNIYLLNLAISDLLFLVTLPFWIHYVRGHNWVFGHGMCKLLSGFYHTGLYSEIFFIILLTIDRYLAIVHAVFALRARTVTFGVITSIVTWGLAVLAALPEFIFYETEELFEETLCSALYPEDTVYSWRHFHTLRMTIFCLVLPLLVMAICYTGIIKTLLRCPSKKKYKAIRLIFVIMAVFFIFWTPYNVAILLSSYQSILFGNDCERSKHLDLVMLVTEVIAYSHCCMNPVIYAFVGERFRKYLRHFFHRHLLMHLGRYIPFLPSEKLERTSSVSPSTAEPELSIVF
pKi: −log10 of the molar value.
OBSERVED PROPERTY: pKi

[ask] Reported pKi, compound CN1CCN(CCNC(=O)NC2CCN(S(=O)(=O)c3cc(C#N)ccc3Oc3cc(Cl)cc(Cl)c3)CC2)CC1 [Compound 51] : ____
[reply] ≥ 7.30

[ask] Reported pKi, compound Cc1ccc(S(=O)(=O)N2CCC(NS(=O)(=O)c3cc(C#N)ccc3Oc3cc(C)cc(C)c3)CC2)cc1 [Compound 31] : ____
[reply] < 5.30

[ask] Reported pKi, compound N#Cc1ccc(Oc2cc(Cl)cc(Cl)c2)c(S(=O)(=O)N2CCC(NC(=O)Nc3cccc(F)c3)CC2)c1 [Compound 52] : ____
[reply] 5.30 to 6.30

[ask] Reported pKi, compound N#Cc1ccc(Oc2cc(Cl)cc(Cl)c2)c(S(=O)(=O)NC2CCN(C(=O)c3ccccc3)CC2)c1 [Compound 35] : ____
[reply] < 5.30

----------
Target: hERG channel (Homo sapiens)
Construct: purchased Perkin Elmer RBHERGM400UA; host or cells: HEK-293 cells transfected with hERG (membrane preparation)
Sequence (Q12809 whole entry): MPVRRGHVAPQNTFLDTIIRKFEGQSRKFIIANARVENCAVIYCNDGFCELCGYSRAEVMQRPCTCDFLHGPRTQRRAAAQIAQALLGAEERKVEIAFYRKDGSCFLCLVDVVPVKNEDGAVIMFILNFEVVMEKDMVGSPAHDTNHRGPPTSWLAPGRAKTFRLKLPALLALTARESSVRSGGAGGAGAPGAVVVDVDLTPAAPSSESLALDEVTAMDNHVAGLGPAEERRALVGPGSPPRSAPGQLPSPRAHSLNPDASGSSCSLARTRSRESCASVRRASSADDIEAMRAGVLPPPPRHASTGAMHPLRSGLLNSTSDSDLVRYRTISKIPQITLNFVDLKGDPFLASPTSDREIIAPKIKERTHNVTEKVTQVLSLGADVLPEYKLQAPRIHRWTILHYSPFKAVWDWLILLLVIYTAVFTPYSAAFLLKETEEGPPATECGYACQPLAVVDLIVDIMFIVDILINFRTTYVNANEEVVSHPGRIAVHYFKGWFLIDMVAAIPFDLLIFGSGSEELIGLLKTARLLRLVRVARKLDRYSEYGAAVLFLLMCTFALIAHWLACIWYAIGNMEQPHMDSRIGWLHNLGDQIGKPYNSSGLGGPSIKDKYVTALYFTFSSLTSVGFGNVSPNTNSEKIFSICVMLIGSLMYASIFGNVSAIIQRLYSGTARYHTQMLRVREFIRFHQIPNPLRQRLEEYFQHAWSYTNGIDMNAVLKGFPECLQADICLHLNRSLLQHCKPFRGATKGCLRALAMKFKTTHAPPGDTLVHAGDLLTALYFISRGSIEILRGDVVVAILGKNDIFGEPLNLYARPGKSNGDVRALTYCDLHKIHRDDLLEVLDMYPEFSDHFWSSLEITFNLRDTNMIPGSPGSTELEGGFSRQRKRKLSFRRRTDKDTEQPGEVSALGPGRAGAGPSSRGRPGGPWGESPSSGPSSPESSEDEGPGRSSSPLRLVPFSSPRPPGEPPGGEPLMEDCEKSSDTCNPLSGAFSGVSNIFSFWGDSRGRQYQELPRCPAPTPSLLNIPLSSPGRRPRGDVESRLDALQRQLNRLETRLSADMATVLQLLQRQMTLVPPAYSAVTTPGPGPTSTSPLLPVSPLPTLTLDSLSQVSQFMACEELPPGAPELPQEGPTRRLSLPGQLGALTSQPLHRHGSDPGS
Assay: hERG Receptor Binding Assay (125I-BeKm-1, membranes from HEK-293 cells containing transfected hERG channels)
Conditions: human, pH 7.2, probe 125I-BeKm-1 (0.1 nM final), 1 hr at room temperature
OBSERVED PROPERTY: Ki at 1 h

1) CC(=O)N1CCC(NS(=O)(=O)c2cc(C#N)ccc2Oc2cc(Cl)cc(Cl)c2)CC1 | > 100 µM

[ask] Reported Ki at 1 h, compound CC(C)(C)OC(=O)N1CCC(NS(=O)(=O)c2cc(C#N)ccc2Oc2cc(Cl)cc(Cl)c2)CC1 : ____
[reply] > 100 µM

[ask] Reported Ki at 1 h, compound CC(C)NC(=S)N1CCC(NS(=O)(=O)c2cc(C#N)ccc2Oc2cc(Cl)cc(Cl)c2)CC1 : ____
[reply] 10 to 100 µM

[ask] Reported Ki at 1 h, compound N#Cc1ccc(Oc2cc(Cl)cc(Cl)c2)c(S(=O)(=O)N2CCC(NC(=O)Nc3cccc(F)c3)CC2)c1 : ____
[reply] > 100 µM

[ask] Reported Ki at 1 h, compound CS(=O)(=O)N1CCC(NS(=O)(=O)c2cc(C#N)ccc2Oc2cc(Cl)cc(Cl)c2)CC1 : ____
[reply] > 100 µM
